Value source: paper PMC1904291

- TEST SYSTEM: T1, I-CreI S138A (UniProt P05725 1-163, S138A)
- T1 sequence: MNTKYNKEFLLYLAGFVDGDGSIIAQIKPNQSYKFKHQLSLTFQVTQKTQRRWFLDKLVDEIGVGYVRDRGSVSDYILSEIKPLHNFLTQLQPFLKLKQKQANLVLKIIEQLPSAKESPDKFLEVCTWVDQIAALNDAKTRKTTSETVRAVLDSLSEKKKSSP
- ASSAY METHOD TEXT: EMSA
PROPERTY: pKd
// field semantics: pKd = negative decimal log of concentration (mol/L)

Give the measured pKd of 6-FAM I-CreI target duplex (dsDNA) DNA 1: GCAAAACGTCGTGAGACAGTTTGC DNA 2: GCAAACTGTCTCACGACGTTTTGC . 6.60
